Entry source: patent US20260274955A1

- Tested target: Anti-CD28 Fab (SEQ ID NOs: 202, 203)
- Sequence (VH, as listed by the source, chain 1 of 2): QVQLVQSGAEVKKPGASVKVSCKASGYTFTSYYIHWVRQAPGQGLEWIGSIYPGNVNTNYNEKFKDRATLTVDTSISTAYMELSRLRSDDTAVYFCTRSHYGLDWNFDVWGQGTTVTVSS
- Sequence (VL, as listed by the source, chain 2 of 2): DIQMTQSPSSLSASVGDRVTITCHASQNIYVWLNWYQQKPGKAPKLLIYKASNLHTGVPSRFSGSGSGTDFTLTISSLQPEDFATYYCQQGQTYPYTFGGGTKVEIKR
- Assay overview: phage binding ELISA on captured Fab;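 also: clonal phage supernatants added briefly to wells pre-incubated with CD28 antigen or with blocking buffer only, then washed, bound phage read by ELISA using HRP-coupled anti-M13 antibody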
Measured endpoint: Anti-CD28 Fab (SEQ ID NOs: 202, 203) signal
Give a plain numeric answer without units written out.

Worked examples follow.
YCDGHTWMYKQKCL [Phage-886] | 0.4
YCAGHTPEYLDKCL [Phage-784] | 0.95
YCAGHIGEYMDKCL [Phage-828] | 0.75

Task: Name the recorded Anti-CD28 Fab (SEQ ID NOs: 202, 203) signal of the binder listed here: YCQGHSELYMSKCL [Phage-858]
Result: 0.6

Task: Name the recorded Anti-CD28 Fab (SEQ ID NOs: 202, 203) signal of the binder listed here: YCDGHELMYMEKCL [Phage-797]
Result: 0.92
